The reported numbers originate from ChEMBL document CHEMBL4732179.

assay: Inhibition of Influenza A virus A/Puerto Rico/8/1934(H1N1) neuraminidase using MUNANA as substrate measured after 60 mins by fluorescence assay
# maps each entry to its IC50
Answer format: numeric, µM implied, no suffix.

| compound | IC50 (µM) |
| --- | --- |
| CC(=O)c1sc(/N=C2\NC(=O)/C(=C/c3ccc(C(=O)O)cc3)S2)nc1C | 31.8 |

Identify measured IC50 associated with CCOC(=O)c1sc(/N=C2\NC(=O)/C(=C/c3cccc(F)c3)S2)nc1C
64.4

Identify measured IC50 associated with CC(C)(C)c1nc(/N=C2\NC(=O)/C(=C/c3ccc(O)cc3)S2)sc1[N+](=O)[O-]
38.8

Identify measured IC50 associated with CCOC(=O)Cc1nc(/N=C2\NC(=O)/C(=C/c3ccc(O)c(OC)c3)S2)sc1C
20.3

Identify measured IC50 associated with COC(=O)c1sc(/N=C2\NC(=O)CS2)nc1C
53.4

Identify measured IC50 associated with COC(=O)c1sc(/N=C2\NC(=O)/C(=C/c3ccc(O)c(OC)c3)S2)nc1C
30.4

Identify measured IC50 associated with CC(=O)c1sc(/N=C2\NC(=O)/C(=C/c3ccc4c(c3)OCO4)S2)nc1C
42.3

Identify measured IC50 associated with CCOC(=O)c1sc(/N=C2\NC(=O)/C(=C/c3ccc(C(=O)OC)cc3)S2)nc1C
94

Identify measured IC50 associated with CCOC(=O)c1sc(/N=C2\NC(=O)/C(=C/c3ccccc3O)S2)nc1C
28.8

Identify measured IC50 associated with COc1cc(/C=C2\S/C(=N/c3nc(C)c(C(C)=O)s3)NC2=O)ccc1O
26.1

Identify measured IC50 associated with CCOC(=O)c1sc(/N=C2\NC(=O)C(c3ccccc3)S2)nc1C (centres undefined)
55.4

Identify measured IC50 associated with CC(C)(C)c1nc(/N=C2\NC(=O)/C(=C/c3ccccc3C(=O)O)S2)sc1[N+](=O)[O-]
33

Identify measured IC50 associated with CCOC(=O)Cc1csc(/N=C2\NC(=O)/C(=C/c3cccc(OC)c3O)S2)n1
33.9

Identify measured IC50 associated with CC(C)(C)c1nc(/N=C2\NC(=O)/C(=C/c3cccc([N+](=O)[O-])c3)S2)sc1[N+](=O)[O-]
48.2

Identify measured IC50 associated with Cc1nc(/N=C2\NC(=O)CS2)sc1C(=O)O
97

Identify measured IC50 associated with CCOC(=O)c1sc(/N=C2\NC(=O)/C(=C/c3ccc(O)c(O)c3)S2)nc1C
27.1

Identify measured IC50 associated with CCOC(=O)c1sc(NC(=S)NC(=O)/C=C/c2ccc(O)c(OC)c2)nc1C
44

Identify measured IC50 associated with CCOC(=O)c1sc(/N=C2\NC(=O)/C(=C/c3ccc(NC(C)=O)cc3)S2)nc1C
44.1

Identify measured IC50 associated with CC(=O)c1sc(/N=C2\NC(=O)/C(=C/c3cccc([N+](=O)[O-])c3)S2)nc1C
70.5

###

system: Influenza A virus (A/Puerto Rico/8/1934(H1N1)); test: Inhibition of Influenza A virus A/Puerto Rico/8/1934(H1N1) neuraminidase at 40 ug/ml using MUNANA as substrate measured after 60 mins by fluorescence assay relative to control; conditions: dose 40.0 µg/ml
reported-metric: inhibition (%)
Answer format: numeric, % implied, no suffix.

See these solved cases before continuing.
| smiles-record | inhibition / % |
| --- | --- |
| COC(=O)c1sc(/N=C2\NC(=O)CS2)nc1C(C)C | 68 |
| CC(C)(C)c1nc(/N=C2\NC(=O)/C(=C/c3cccc(Cl)c3)S2)sc1[N+](=O)[O-] | 45.9 |
| CCOC(=O)Cc1csc(/N=C2\NC(=O)CS2)n1 | 26.4 |
| CCOC(=O)Cc1csc(/N=C2\NC(=O)/C(=C/c3ccc(C(=O)O)cc3)S2)n1 | 89.6 |
| CC(=O)Nc1ccc(/C=C2\S/C(=N/c3nc(C(C)(C)C)c([N+](=O)[O-])s3)NC2=O)cc1 | 56.7 |
| COC(=O)c1sc(/N=C2\NC(=O)/C(=C/c3ccc(O)c(OC)c3)S2)nc1C | 88.2 |

Identify measured inhibition associated with CCOC(=O)c1sc(/N=C2\NC(=O)/C(=C/c3cccc(Cl)c3)S2)nc1C
52

Identify measured inhibition associated with CCOC(=O)c1sc(/N=C2\NC(=O)/C(=C/c3ccc(NC(C)=O)cc3)S2)nc1C
77.8

Identify measured inhibition associated with CCOC(=O)Cc1csc(/N=C2\NC(=O)/C(=C/c3ccc(OC)c(O)c3)S2)n1
82.6
